Assignment: determine reported TGI for the given compounds.
# System: DMS 114 small cell lung
# run.description: NCI tumour cell line growth inhibition, 48 h

Solved entries (count: 2):
# compound, result
data = [
    ("CCCCC(C(=O)CCC(=O)Nc1ccc(Cl)cc1)C(=O)C(C)C (stereo not drawn)", "> 100 µM"),
    ("C[N+]1(C)C[C@@H](O)C[C@@H]1C(=O)[O-]", "> 100 µM"),
]

Kindly consider the entry below.
# input Quickly give me recorded TGI for COC(=O)/C(=N/NC(C)(C)C)C(C(=O)OC)C(=O)C(=O)Nc1nc2ccc([N+](=O)[O-])cc2s1 (stereo not drawn)
# output > 100 µM
